biological target: Discoidin domain-containing receptor 2 (Homo sapiens) (UniProt Q16832); conditions: at 1 µM;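 note: reported figure is the mean inhibition of DDR2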
Sequence (Q16832 whole entry, the tested form may be a part): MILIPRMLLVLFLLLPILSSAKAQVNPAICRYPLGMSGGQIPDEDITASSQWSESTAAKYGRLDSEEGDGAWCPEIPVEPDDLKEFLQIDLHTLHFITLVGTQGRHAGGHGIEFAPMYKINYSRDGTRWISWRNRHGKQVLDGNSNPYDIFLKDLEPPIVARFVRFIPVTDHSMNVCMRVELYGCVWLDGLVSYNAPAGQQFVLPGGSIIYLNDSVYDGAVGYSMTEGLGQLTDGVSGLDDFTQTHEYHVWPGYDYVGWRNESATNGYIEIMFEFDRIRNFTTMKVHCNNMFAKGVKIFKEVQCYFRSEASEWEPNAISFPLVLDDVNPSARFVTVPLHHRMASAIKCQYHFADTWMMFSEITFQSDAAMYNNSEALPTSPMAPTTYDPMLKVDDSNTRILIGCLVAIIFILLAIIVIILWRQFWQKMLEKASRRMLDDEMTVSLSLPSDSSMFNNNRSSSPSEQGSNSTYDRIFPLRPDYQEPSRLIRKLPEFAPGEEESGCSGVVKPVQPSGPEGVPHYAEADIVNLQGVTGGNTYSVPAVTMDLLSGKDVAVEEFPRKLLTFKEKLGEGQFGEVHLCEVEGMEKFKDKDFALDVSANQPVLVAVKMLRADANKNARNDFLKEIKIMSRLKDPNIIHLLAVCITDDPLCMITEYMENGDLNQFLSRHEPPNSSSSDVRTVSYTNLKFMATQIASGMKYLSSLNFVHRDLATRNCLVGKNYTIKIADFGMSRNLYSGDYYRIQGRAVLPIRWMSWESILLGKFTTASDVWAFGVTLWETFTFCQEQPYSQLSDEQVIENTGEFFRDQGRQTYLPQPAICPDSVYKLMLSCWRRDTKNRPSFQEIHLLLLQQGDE
Record form. Attribute: inhibition. Fill in for each entry.
# unit: % | format: bare number

## Input Quick one: inhibition for COC(=O)c1cncc(/C=C/c2c(C)cc(O)cc2C)c1 ?
## Output 10.3

## Input Try the compound NS(=O)(=O)c1ccc(Nc2cc(-c3cccc(O)c3)n[nH]2)cc1
## Output 3.91

## Input Another compound to check: Oc1cccc(-c2nc(-c3ccccc3)[nH]c2-c2ccncc2)c1
## Output 10.9

## Input Proceed to COc1cc2ncnc(Nc3ccc(C)c(O)c3)c2cc1OC
## Output 9.45

## Input Repeat for the following compound: Nc1nccc(-c2c(-c3ccc(F)cc3)ncn2CCCN2CCOCC2)n1
## Output -1.04

## Input Similarly, Cc1cc(O)cc(C)c1/C=C/c1cncc(C(=O)N(C)C)c1 ?
## Output 6.51

## Input Moving on to the next compound: N#Cc1c(NC(=O)c2ccccc2F)sc2c1CCCC2
## Output -1.14

## Input Another: Cc1ccc2c(c1)/C(=N/Nc1ccc(S(N)(=O)=O)cc1)C(=O)N2
## Output -0.71

## Input Note, next up: COC(=O)c1ccc2c(c1)C(=Cc1cc(Br)c(O)c(Br)c1)C(=O)N2
## Output 7.08

## Input CN(C)C(=O)O[C@@H]1CN[C@@H](C#Cc2cc3ncnc(Nc4ccc(OCc5cccc(F)c5)c(Cl)c4)c3s2)C1 ?
## Output 3.36

## Input Also COc1cc(/C=N/Nc2ncnc3c2cnn3C(C)C)ccc1O , if possible.
## Output -1.45

## Input // same read-out, input: Cc1ccc2c(-c3ccnc(Nc4ccc5c(c4)OCCO5)n3)c(-c3ccc(C(F)(F)F)cc3)nn2n1
## Output 6.25

## Input Also, Cc1cc(-c2ccccn2)cc(C)c1/C=C/c1cncc(-c2nn[nH]n2)c1 please.
## Output 5.62

## Input What about this compound? Cc1ccc(Nc2ccnc(Nc3cccc(C(N)=O)c3)n2)cc1O
## Output 30

## Input Moving on to the next compound: CC(C)c1ccc2c(c1)NC(=O)/C2=N/Nc1ccc(S(N)(=O)=O)cc1
## Output 0.19

## Input Now consider C[C@@H](Oc1cc(-n2cnc3ccc(OCC4CCN(C)CC4)cc32)sc1C(N)=O)c1ccccc1C(F)(F)F and answer again.
## Output -4.23

## Input Moving on to the next compound: CN(C)CCCn1c(-c2nonc2N)nc2cnccc21
## Output 1.57

## Input Then what about the compound CCOc1nccc2c1nc(-c1nonc1N)n2CC ?
## Output 5.68

## Input Would you kindly repeat that for O=C1Nc2ccc(-c3cccnc3)cc2C1=Cc1cc(Br)c(O)c(Br)c1 ?
## Output 5.97

## Input Same question, c1ccc(Nc2ncc(-c3ccccc3)o2)cc1 this time
## Output 7.24

## Input Field entry: Cc1ccc(NC(=O)CC2CC2)cc1-c1ccc(C(=O)NCC2CC2)cc1
## Output 5.56

## Input Same question, CCCN1CCCC(c2ccc(Nc3nc(Nc4cc(F)ccc4C(N)=O)c4cc[nH]c4n3)c(OC)c2)C1 (configuration not stated) this time
## Output 4.82

## Input What about COc1cc2ncnc(Nc3ccc4c(cnn4Cc4ccccc4)c3)c2cc1OC ?
## Output 1.78

## Input Proceed to OCc1ccc(-c2nc(-c3ccccn3)c(-c3ccc4c(c3)OCO4)[nH]2)cc1
## Output 4.73

## Input Entry COc1ccc2ncnc(Nc3ccc(OCc4ccccc4)cc3)c2c1 please
## Output 2.34

## Input Try this compound next: COc1cccc(-n2ncc3c(N/N=C/c4ccc(S(C)(=O)=O)cc4)ncnc32)c1
## Output 7.83

## Input // next record COc1ccc(-c2nn3ncccc3c2-c2ccnc(Nc3cccc(C(F)(F)F)c3)n2)cc1
## Output 22

## Input // next record Cc1ccc2c(-c3ccnc(Nc4cccc(C(F)(F)F)c4)n3)c(-c3ccccc3)nn2n1
## Output 47.4

## Input Now try Nc1nccc(-c2c(-c3ccc(F)cc3)nn3cc(C(F)(F)F)ccc23)n1 .
## Output 5.28

## Input Please do the same for NS(=O)(=O)c1ccc(NC=C2C(=O)Nc3ccc4ncsc4c32)cc1 as well.
## Output 6.94

## Input Also, COc1cccc(-n2nc(C)c3c(N/N=C(\C)c4ccncc4)ncnc32)c1 please.
## Output 0.38

## Input Check N#Cc1cccc(Nc2nccc(-c3cnn4ncccc34)n2)c1 too.
## Output 7.43

## Input Follow-up entry: CN1CCN(C(=O)c2ccc(NC(=O)Nc3ccc(N(C)c4ccnc(Nc5ccc(CS(C)(=O)=O)cc5)n4)cc3)cc2)CC1
## Output 85

## Input Also check CCn1c(-c2nonc2N)nc2c(C#CC(C)(C)O)nc(OCCNC)cc21
## Output 2.04

## Input Try this compound too: NS(=O)(=O)c1cccc(-c2cc3ccncc3cc2OCc2ccccc2)c1
## Output 6.85

## Input Same lookup for Nc1nccc(C#Cc2cncnc2Nc2ccc(OCc3cccc(F)c3)c(Cl)c2)n1 , please.
## Output 4.7

## Input Now consider Cc1ccc(C(=O)NC2CC2)cc1-c1ccc2[nH]ncc2c1 .
## Output -0.74

## Input // repeat for O=S(=O)(CCOCc1ccc(-c2ccc3ncnc(Nc4ccc(OCc5cccc(F)c5)c(Cl)c4)c3c2)o1)c1ccccc1 and report
## Output 3.8

## Input Try this compound too: NS(=O)(=O)c1ccc(N/N=C2\C(=O)Nc3ccc(Cl)cc32)cc1
## Output 3.13

## Input Same for FC(F)(F)c1ccc(-c2nn3ncccc3c2-c2ccnc(Nc3ccc4c(c3)OCCO4)n2)cc1
## Output 24.9

## Input What would you report for CCn1c(-c2nonc2N)nc2ccc(F)cc21 ?
## Output 4.58

## Input How about this compound: CCS(=O)(=O)c1ccc(OC)c(Nc2nccc(N(C)c3ccc4c(C)n[nH]c4c3)n2)c1
## Output -2.28

---

Give inhibition for every item shown.
target: Tyrosine-protein kinase Srms (Homo sapiens) (UniProt Q9H3Y6); conditions: at 1 µM
Sequence (Q9H3Y6 whole entry): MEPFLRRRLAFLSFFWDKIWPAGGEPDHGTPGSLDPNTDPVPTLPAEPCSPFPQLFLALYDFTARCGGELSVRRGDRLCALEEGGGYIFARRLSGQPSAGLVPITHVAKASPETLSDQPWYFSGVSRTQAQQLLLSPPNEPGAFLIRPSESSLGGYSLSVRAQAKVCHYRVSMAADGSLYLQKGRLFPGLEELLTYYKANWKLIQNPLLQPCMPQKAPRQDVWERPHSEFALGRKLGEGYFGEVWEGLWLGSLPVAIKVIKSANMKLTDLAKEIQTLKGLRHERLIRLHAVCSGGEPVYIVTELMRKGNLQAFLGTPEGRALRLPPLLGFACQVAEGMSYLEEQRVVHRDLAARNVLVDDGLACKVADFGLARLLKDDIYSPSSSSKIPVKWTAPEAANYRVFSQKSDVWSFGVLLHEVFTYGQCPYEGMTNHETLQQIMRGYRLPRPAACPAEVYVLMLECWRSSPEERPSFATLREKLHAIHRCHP
Description: GSK_PKIS: SRMS mean inhibition at 1 uM [Nanosyn]
Answer in %, number only, no unit symbol.

## Input Fill in: inhibition of CS(=O)(=O)CCNCc1nc(-c2ccc3ncnc(Nc4ccc(OCc5cccc(C(F)(F)F)c5)cc4)c3c2)cs1 is ___
## Output -3.56

## Input Now consider CC(C)c1ccc(Nc2nccc(-c3cnn4ncccc34)n2)cc1 .
## Output 3.15

## Input Can you check COc1ccc(-c2nn3ncccc3c2-c2ccnc(Nc3cccc(C(F)(F)F)c3)n2)cc1 next?
## Output 1.75

## Input // repeat for COc1cc2ncnc(Nc3ccc4c(cnn4Cc4ccccc4)c3)c2cc1OC and report
## Output 4.63

## Input One more molecule: NS(=O)(=O)c1ccc(Nc2cc(-c3cccc(O)c3)n[nH]2)cc1
## Output -7.29

## Input Try this molecule too: NC(=O)c1sc(-n2cnc3ccccc32)cc1OCc1ccccc1Br
## Output -2.44

## Input Consider next the molecule NS(=O)(=O)c1cccc(-c2cc3ccncc3cc2OCc2ccccc2)c1 in the same way.
## Output -2.93

## Input Next record, please: COC(=O)c1ccc2c(c1)C(=Cc1cc(Br)c(O)c(Br)c1)C(=O)N2
## Output 75.9

## Input Note, next up: COc1cccc(-n2ncc3c(N/N=C/c4ccc(S(C)(=O)=O)cc4)ncnc32)c1
## Output 17.8

## Input Next molecule: NS(=O)(=O)c1ccc(NC=C2C(=O)Nc3ccc4ncsc4c32)cc1
## Output 0.07

## Input Next up: CN(C)c1cc2c(Nc3ccc4c(cnn4Cc4ccccc4)c3)ncnc2cn1
## Output 1.29

## Input What do we get for Oc1cccc(-c2nc(-c3ccccc3)[nH]c2-c2ccncc2)c1 ?
## Output 8.65

## Input Entry COc1ccc2ncnc(Nc3ccc(OCc4ccccc4)cc3)c2c1 please
## Output 0.6

## Input Continue with FC(F)(F)c1ccc(-c2nn3ncccc3c2-c2ccnc(Nc3ccc4c(c3)OCCO4)n2)cc1
## Output 8.73

## Input # iterate: COc1cc(Nc2nccc(-c3cnn4ncccc34)n2)cc(OC)c1
## Output 6.85

## Input And what about the molecule Cc1cc(Cl)cc2c1NC(=O)C2=NNc1ccc(S(N)(=O)=O)cc1 ?
## Output -2.07

## Input Same for O=C1Nc2ccc(-c3cccnc3)cc2C1=Cc1cc(Br)c(O)c(Br)c1
## Output 57.9

## Input Can you handle N#Cc1c(NC(=O)c2ccccc2F)sc2c1CCCC2 next?
## Output 1.79

## Input Would you kindly repeat that for CCOc1nccc2c1nc(-c1nonc1N)n2CC ?
## Output 5.69

## Input One more molecule: CCS(=O)(=O)c1ccc(OC)c(Nc2ncc(-c3cccc(OC)c3)o2)c1
## Output 30.6

## Input Proceed to COC(=O)Nc1nc2cc(Oc3ccc(NC(=O)Nc4cccc(Br)c4)cc3)ccc2[nH]1
## Output 3.49

## Input Would you kindly repeat that for CN1CCN(C(=O)c2ccc(NC(=O)Nc3ccc(N(C)c4ccnc(Nc5ccc(CS(C)(=O)=O)cc5)n4)cc3)cc2)CC1 ?
## Output 5.6

## Input Ok, now OCc1ccc(-c2nc(-c3ccccn3)c(-c3ccc4c(c3)OCO4)[nH]2)cc1
## Output -1.19

## Input What would you report for O=C1Nc2ccccc2/C1=C/Nc1ccc2[nH]c(=O)[nH]c2c1 ?
## Output 3.2

## Input What would you report for COc1cc(/C=N/Nc2ncnc3c2cnn3C(C)C)ccc1O ?
## Output 4.98

## Input What do we get for Cc1cc(-c2ccccn2)cc(C)c1/C=C/c1cncc(-c2nn[nH]n2)c1 ?
## Output 11.8
